// provenance: ChEMBL document CHEMBL3352709

Target: UniProt:P14416
Sequence (P14416 whole entry): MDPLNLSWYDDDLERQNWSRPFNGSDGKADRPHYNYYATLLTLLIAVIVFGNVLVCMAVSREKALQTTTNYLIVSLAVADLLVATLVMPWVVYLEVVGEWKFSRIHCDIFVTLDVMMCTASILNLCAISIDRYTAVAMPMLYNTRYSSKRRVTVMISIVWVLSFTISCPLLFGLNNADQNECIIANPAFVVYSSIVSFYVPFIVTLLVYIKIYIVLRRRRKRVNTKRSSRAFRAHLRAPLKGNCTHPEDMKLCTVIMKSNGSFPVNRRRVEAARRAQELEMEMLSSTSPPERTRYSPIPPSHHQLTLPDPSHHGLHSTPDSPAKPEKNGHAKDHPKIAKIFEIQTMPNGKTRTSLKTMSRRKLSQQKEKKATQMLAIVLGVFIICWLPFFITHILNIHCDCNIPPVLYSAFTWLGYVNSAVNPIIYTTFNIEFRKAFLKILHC
Experiment: Displacement of [3H]spiperone from human D2short receptor stably expressed in CHO cell membranes by competitive binding assay
pKi: −log10 of the molar value.
ENDPOINT: pKi

MOLECULE: O=C(CCCCCCC(=O)OC1(c2ccc(Cl)cc2)CCN(CCCC(=O)c2ccc(F)cc2)CC1)OC1(c2ccc(Cl)cc2)CCN(CCCC(=O)c2ccc(F)cc2)CC1
MEASUREMENT: 8.54
--
MOLECULE: CCCCCCCCCC(=O)OC1(c2ccc(Cl)cc2)CCN(CCCC(=O)c2ccc(F)cc2)CC1 [HALOPERIDOL DECANOATE]
MEASUREMENT: 9.34
--
MOLECULE: CC(=O)OC1(c2ccc(Cl)cc2)CCN(CCCC(=O)c2ccc(F)cc2)CC1
MEASUREMENT: 8.35
--
MOLECULE: O=C(CCN1CCN(CCC(=O)OC2(c3ccc(Cl)cc3)CCN(CCCC(=O)c3ccc(F)cc3)CC2)CC1)OC1(c2ccc(Cl)cc2)CCN(CCCC(=O)c2ccc(F)cc2)CC1
MEASUREMENT: 8.96
--
MOLECULE: O=C(CCC(=O)OC1(c2ccc(Cl)cc2)CCN(CCCC(=O)c2ccc(F)cc2)CC1)OC1(c2ccc(Cl)cc2)CCN(CCCC(=O)c2ccc(F)cc2)CC1
MEASUREMENT: 8.27
--
MOLECULE: O=C(CCCCCCCCCCCCCCCCCCCCC(=O)OC1(c2ccc(Cl)cc2)CCN(CCCC(=O)c2ccc(F)cc2)CC1)OC1(c2ccc(Cl)cc2)CCN(CCCC(=O)c2ccc(F)cc2)CC1
MEASUREMENT: 6.55
--
MOLECULE: CN(C)CCC(=O)OC1(c2ccc(Cl)cc2)CCN(CCCC(=O)c2ccc(F)cc2)CC1
MEASUREMENT: 8.74
--
MOLECULE: O=C(CCCC(=O)OC1(c2ccc(Cl)cc2)CCN(CCCC(=O)c2ccc(F)cc2)CC1)OC1(c2ccc(Cl)cc2)CCN(CCCC(=O)c2ccc(F)cc2)CC1
MEASUREMENT: 7.92
--
MOLECULE: Cc1ccc(C(=O)OC2(c3ccc(Cl)cc3)CCN(CCCC(=O)c3ccc(F)cc3)CC2)cc1
MEASUREMENT: 7.33
--
MOLECULE: O=C(CCCCC(=O)OC1(c2ccc(Cl)cc2)CCN(CCCC(=O)c2ccc(F)cc2)CC1)OC1(c2ccc(Cl)cc2)CCN(CCCC(=O)c2ccc(F)cc2)CC1
MEASUREMENT: 8.64
--
MOLECULE: O=C(CCc1cn(CCCCCCCCCCn2cc(CCC(=O)OC3(c4ccc(Cl)cc4)CCN(CCCC(=O)c4ccc(F)cc4)CC3)nn2)nn1)OC1(c2ccc(Cl)cc2)CCN(CCCC(=O)c2ccc(F)cc2)CC1
MEASUREMENT: 8.27
--
MOLECULE: O=C(CCCCCCCCCCCCCCCCCCC(=O)OC1(c2ccc(Cl)cc2)CCN(CCCC(=O)c2ccc(F)cc2)CC1)OC1(c2ccc(Cl)cc2)CCN(CCCC(=O)c2ccc(F)cc2)CC1
MEASUREMENT: 7.57
--
MOLECULE: O=C(CCc1cn(CCOCCOCCOCCn2cc(CCC(=O)OC3(c4ccc(Cl)cc4)CCN(CCCC(=O)c4ccc(F)cc4)CC3)nn2)nn1)OC1(c2ccc(Cl)cc2)CCN(CCCC(=O)c2ccc(F)cc2)CC1
MEASUREMENT: 8.52
